Below, each of the binders is paired with its reported kon value.
biological target: T1, human IL-13 wild type (human, UniProt P35225 35-146); assay: SPR (Biacore), mAb captured, IL-13 as analyte
T1 construct: also called h IL-13; h IL-13 wt
T1 sequence (P35225 other isoform, or with tags, fused parts or gaps limits assumed): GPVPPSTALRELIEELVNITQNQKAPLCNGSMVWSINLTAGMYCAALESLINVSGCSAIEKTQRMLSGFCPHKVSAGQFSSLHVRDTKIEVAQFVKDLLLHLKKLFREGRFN
Please respond with the number in M⁻¹ s⁻¹ and leave the unit unwritten.

binder="33C3 (antibody, V domains shown) VH: QVTLKESGPGILQPSQTLSLTCSFSGFSLSTSDLGVGWIRQPSGKGLEWLAHIWWDDVKRYNPALKSRLTISKDTSSSQVFLMIASVDTADTATYYCARIGSSGYIYYEMDYWGQGTSVTVSS VL: DIQMTQTTSSLSASLGDRVTITCRASQDIRNYLNWYQQKPDGTVKLLIYYTSRLHSGVPSRFSGSGSGTDYSLTISNLDQEDIATYFCQQGNTLPLTFGGGTRLEIKR" recorded_metric=kon quantitative_readout=2.33e+06
binder="29G5 (antibody, V domains shown) VH: QVTLKESGPGILQPSQTLSLTCSFSGFSLSTSDMGVDWIRQPSGKDLEWLAHIWWDDVKRYNPALKSRLTISKDTSSSQVFLMLASVDTADTATYYCARIVSSGYIYYALDYWGQGTSVTVSS VL: DIQMTQTASSLSASLGDRVTISCRASQDIRNYLNWYQRKPDGTVKLLIYYTSRLHSGVPSRFSGSGSGTDYSLTISNLEQEDIATYFCQQGNTLPLTFGGGTKLEIKR" recorded_metric=kon quantitative_readout=859000
binder="21D9 (antibody, V domains shown) VH: QVQLQQSGDDLVKPGASVKLSCKASGYTFTSYWINWIKQRPGQGLEWIGHIAPGSGETYDNEMFKDKAKLTVDTSSNTAYIHLSSLSSEDSAVYFCARGSFTFFYAMDYWGQGTSVTVSS VL: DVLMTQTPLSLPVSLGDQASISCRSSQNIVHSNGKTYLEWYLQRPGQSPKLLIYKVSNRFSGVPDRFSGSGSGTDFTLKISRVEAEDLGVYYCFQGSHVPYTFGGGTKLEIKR" recorded_metric=kon quantitative_readout=852000
binder="1B6 (antibody, V domains shown) VH: QVQLKESGPGLVAPSQSLSITCTVSGFSLTGYGVNWVRQPPGKGLEWLGMIWGDERIDYNSALKSRLSITKDNSKSQVFLKMNSLQTDDTGRYFCARDGYFPYAMDYWGQGTSVTVSS VL: NIVLTQSPASLAVSLGQRATISCRASETVDSYGKSYLHWYQQKPGQPPKLLIYLASNLESGVPARFSGSGSRTDFTLIIDPVEADDAATYYCQQNNEGPRTFGGGTKLEIKR" recorded_metric=kon quantitative_readout=951000
binder="6C8 (antibody, V domains shown) VH: QVQLKESGPGLVAPSQSLSITCTVSEFSLTGSSVNWVRQPPGKGLEWLGMIWGDGRIDYNSALKSRLSISKDNSKSQVFLKMNSLQTDDTARYYCARDGYYPYAMNYWGQGTSVTVSS VL: NIVLTQSPASLAVSLGQRATISCRASESVDSYGNSFMHWYQQKPGQPPKLLIYLASNLESGVPARFSGSGSRADFTLTIDPVEADDAATYYCQQNNENPRTFGGGTKLEIKR" recorded_metric=kon quantitative_readout=1.45e+06
binder="8B6 (antibody, V domains shown) VH: QVQLKESGPGLVAPSQSLSITCTVSGFSLTGHNINWVRQPPGKGLEWLGMIWGDGNTDFNSALKSRLSISKDNSKSQVFLKLNSLQTDDTARYYCARDGYYPYAIKFWGQGTSVTVSS VL: HIVLTQSPASLAVSLGQRATISCRASETVDSYGSSFLHWYQQKPGQPPKLLIYLASKLESGVPARFSGSGSRTDFTLTIDPVEADDAATYYCQQNNEGPRTFGGGSKLEIKR" recorded_metric=kon quantitative_readout=1.16e+06
binder="5G1 (antibody, V domains shown) VH: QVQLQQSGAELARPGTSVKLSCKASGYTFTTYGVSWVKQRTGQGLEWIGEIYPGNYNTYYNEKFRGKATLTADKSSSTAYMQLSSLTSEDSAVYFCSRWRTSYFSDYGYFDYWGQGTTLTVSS VL: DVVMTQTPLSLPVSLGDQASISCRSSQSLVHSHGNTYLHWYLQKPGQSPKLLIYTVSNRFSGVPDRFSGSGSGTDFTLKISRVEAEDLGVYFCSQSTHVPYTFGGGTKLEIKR" recorded_metric=kon quantitative_readout=626000
binder="5D3 (antibody, V domains shown) VH: QVQLKESGPGLVAPSQSLSITCTVSGFSLTGYNINWVRQPPGKGLEWLGLIWGDGNTAFNSALKSRLSISKDNSKSQVFLKLNSLQTDDTARYYCARDGYYPYAIKYWGQGTSVTVSS VL: NIVLTQSPASLAVSLGQRATISCRASETVDSYGNSFMHWYQQKPGQPPKLLIYLASNLESGVPARFSGSGSRTDFTLTIDPVEADDAATYYCQQNNEDPRTFGGGTKLEIKR" recorded_metric=kon quantitative_readout=1.63e+06
binder="5F1 (antibody, V domains shown) VH: QVQLQQSGAELARPGTSVKLSCKASGYTFTTYGISWVKQRTGQGLEWIGEIYPGSYNTYYNEKFRGKATLTADKSSSTAYMQLSSLTSEDSAVYFCSRWRTSYFSDYGYFDYWGQGTTLTVSS VL: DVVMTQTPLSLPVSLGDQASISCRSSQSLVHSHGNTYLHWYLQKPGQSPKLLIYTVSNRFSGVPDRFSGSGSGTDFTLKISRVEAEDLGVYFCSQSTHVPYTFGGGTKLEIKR" recorded_metric=kon quantitative_readout=774000

# kon lookup, item 3E5 (antibody, V domains shown) VH: QVQLKESGPGLVAPSQSLSITCTVSGFSLTGSSINWVRQPPGKGLEWLGMIWGDGRIDYNSVLKSRLSISKDSSKSQVFLKMNSLQADDTARYYCARDGYYPYAMVYWGQGTSVTVSS VL: NIVLTQSPASLAVSLGQRATIFCRASESVDSYGNSFMHWYQQKSGQPPKLLIYLASNLESGVPARFSGSGSRTDFTLTIDPVEADDAATFYCQQNNENPRTFGGGTKLEIKR
1.44e+06

Reference source: patent US20110165066A1
